- System: HCT-8 host cells (Hs18S)
- condition_parameters: primary screening at 10 uM, treated vs control
Where a name gives a salt, the structure may show the parent alone.
For each entry below, report its Hs18S ΔCT value.
In your answer, state the number alone without any accompanying words.

Write down Hs18S ΔCT measured for item `Oc1ccc(/C=C/c2cc(O)cc(O)c2)cc1`
-0.13

Using the record for `C=CCc1cc(OC)c2c(c1OC)OCO2` , state its measured Hs18S ΔCT.
0.06

Give the reported Hs18S ΔCT for this compound. COc1cc2c(cc1OC)C1(O)C(=O)c3ccc(O)c(C(=O)O)c3OC1CO2 (centres unmarked)
0.06

Specify reported Hs18S ΔCT for the compound shown: `Cc1cc2c(C(C)C)c(O)c(O)c(C=O)c2c(O)c1-c1c(C)cc2c(C(C)C)c(O)c(O)c(C=O)c2c1O`
0.45

Give the reported Hs18S ΔCT for this compound. C=C1CCC(C2CC(=O)OC2=O)C(=O)CCC2C1CC2(C)C (centres unmarked)
-0.09

Using the record for `O=c1cc(-c2ccccc2)oc2cccc(O)c12` , state its measured Hs18S ΔCT.
0.05

Input `CCCCCCCCCCCC1=C(O)C(=O)C=C(O)C1=O` , output reported Hs18S ΔCT.
0.13

Read the entry CC1(C)CCC[C@]2(C)[C@H]3CC(=O)O[C@]3(C)CC[C@@H]12 [SCLAREOLIDE] and write its reported Hs18S ΔCT.
0.57

Consider the compound `OC[C@@H](O)C(O)[C@H](O)CO` and give its recorded Hs18S ΔCT.
-0.04

Identify Hs18S ΔCT associated with the compound COc1ccc2c(c1O)-c1c(OC)c(OC)cc3c1[C@H](C2)N(C)CC3 [S-ISOCORYDINE (+)]
-0.56

Query Hs18S ΔCT for `C[C@H]1COC2=C1C(=O)C(=O)c1c2ccc2c1CCCC2(C)C`
0.18

Determine from records and report Hs18S ΔCT for CO[C@H]1[C@H](O)[C@H](O[C@H]2CC[C@@]3(C=O)[C@H](CC[C@@H]4[C@@H]3CC[C@]3(C)[C@@H](C5=CC(=O)OC5)CC[C@]43O)C2)O[C@@H](C)[C@@H]1O [PERUVOSIDE]
10.85

Consider the compound Cc1nccc2c1[nH]c1cc(O)ccc12 [HARMOL HYDROCHLORIDE] . State its measured Hs18S ΔCT.
-0.14

Give reported Hs18S ΔCT value for COc1cc2c(cc1OC)[C@@H]1C(=O)c3ccc4c(c3O[C@@H]1CO2)CC(C(C)C)O4 (some centres unmarked) [DIHYDROROTENONE]
0.76

Using the record for COc1cc2c(cc1O)CCNC2C (centres unmarked) , state its measured Hs18S ΔCT.
-0.01

Output Hs18S ΔCT of `C=CCc1ccc(OC)cc1`
-0.22

Answer with the recorded Hs18S ΔCT of `CC(=O)O[C@H]1C(=O)[C@@]2(C)[C@H]([C@H](OC(=O)c3ccccc3)[C@]3(O)C[C@H](O)C(C)=C1C3(C)C)[C@]1(OC(C)=O)CO[C@@H]1C[C@@H]2O` only.
0.08

Specify measured Hs18S ΔCT for `C[C@@H]1CC[C@@]2(NC1)O[C@H]1C[C@H]3[C@@H]4CC=C5C[C@@H](O)CC[C@]5(C)[C@H]4CC[C@]3(C)[C@H]1[C@@H]2C` .
0.07

Check the records and state Hs18S ΔCT for `COc1cc2c(c(OC)c1OC)-c1ccc(OC)c(=O)cc1[C@@H](NC(C)=O)CC2`
-0.34

Input CC(=O)O[C@H]1CC[C@@]2(C)C(=CC=C3[C@@H]4CC[C@H]([C@H](C)/C=C/[C@H](C)C(C)C)[C@@]4(C)CC[C@@H]32)C1 [ERGOSTEROL ACETATE] , output reported Hs18S ΔCT.
0.06

Please look at this compound and report its Hs18S ΔCT: C=C[C@@](C)(O)CCC=C(C)C [LINALOOL (+)]
0.09

Specify Hs18S ΔCT for `CC(C)=CCC/C(C)=C/COc1ccc2ccc(=O)oc2c1` and stop.
0.02

Note down Hs18S ΔCT recorded for `COC1=C(OC)C(=O)C(C/C=C(\C)CC/C=C(\C)CC/C=C(\C)CC/C=C(\C)CC/C=C(\C)CC/C=C(\C)CC/C=C(\C)CC/C=C(\C)CC/C=C(\C)CCC=C(C)C)=C(C)C1=O`
0.35

Identify Hs18S ΔCT associated with the compound `COc1cc2ccc(=O)oc2c2ccoc12`
0.32

Supply reported Hs18S ΔCT belonging to this compound: CN1[C@@H]2CC[C@H]1C[C@@H](OC(=O)C(CO)c1ccccc1)C2 (some centres unmarked) [ATROPINE SULFATE]
0.26

Indicate its recorded Hs18S ΔCT; the compound in question is `COc1cc(/C=C/C(=O)N2CCC=CC2=O)cc(OC)c1OC`
0.33
